test: in vitro; conditions: PAMPA, pH 7.4
OBSERVED PROPERTY: Papp at 18 h, 100 μM
Hey, just the number and the unit after it is fine.

Returns the measured Papp at 18 h, 100 μM for the input compound. Input: CCCC(CCC)C(=O)O[C@H]1C[C@@H](C)C=C2C=C[C@H](C)[C@H](CC[C@@H]3C[C@@H](O)CC(=O)O3)[C@H]21 [NST0060]
8.8 ×10⁻⁶ cm/s
